assay: Terminal half life in human urine treated with oxcarbazepine at 300 mg, po administered as one-film coated tablet by high-performance liquid chromatography; assay type: ADME, organism-based; details: read-out: beta t1/2 (converted)
Entries and their half-life

{"molecule": "NC(=O)N1c2ccccc2C[C@@H](O[C@@H]2O[C@H](C(=O)O)[C@@H](O)[C@H](O)[C@H]2O)c2ccccc21", "unit-text": "h", "half-life": 10.3}
{"molecule": "NC(=O)N1c2ccccc2C[C@@H](O)c2ccccc21", "unit-text": "h", "half-life": 7}
{"molecule": "NC(=O)N1c2ccccc2C[C@H](O)c2ccccc21 [ESLICARBAZEPINE]", "unit-text": "h", "half-life": 8.5}
{"molecule": "NC(=O)N1c2ccccc2C[C@H](O[C@@H]2O[C@H](C(=O)O)[C@@H](O)[C@H](O)[C@H]2O)c2ccccc21", "unit-text": "h", "half-life": 10.8}

###

assay: Oral bioavailability in human at 300 mg administered as one-film coated tablet by non-enantiospecific assay based high-performance liquid chromatography; format: ADME, organism-based; conditions: in vivo

{"compound": "NC(=O)N1c2ccccc2CC(=O)c2ccccc21 [OXCARBAZEPINE]", "unit-text": "%", "bioavailability": 99}

###

Entries and their clearance
test: Total plasma clearance in human treated with monohydroxy derivative of OXC at 150 mg, iv administered as single dose by high-performance liquid chromatography; type: ADME, organism-based
quantity: clearance (mL/min)

{"compound": "NC(=O)N1c2ccccc2C[C@H](O)c2ccccc21 [ESLICARBAZEPINE]", "readout-value": 71.2}
{"compound": "NC(=O)N1c2ccccc2C[C@@H](O)c2ccccc21", "readout-value": 88.3}

###

experiment: Total plasma clearance in human at 200 mg, iv administered as single dose by high-performance liquid chromatography; format: ADME, organism-based
quantity: clearance (mL/min)

{"compound": "NC(=O)N1c2ccccc2CC(O)c2ccccc21 (racemic) [LICARBAZEPINE]", "unit-text": "mL/min", "readout-value": 92}

###

assay: AUC in human at 250 mg, iv administered as infusion over 30 mins by non-enantiospecific assay based high-performance liquid chromatography; type: ADME, organism-based; set-up: time < 0.5 hr, dose 250 mg, route intravenous; conditions: plasma

{"compound": "NC(=O)N1c2ccccc2CC(O)c2ccccc21 (racemic) [LICARBAZEPINE]", "unit-text": "µM·h", "AUC at 0.5 h": 261}

###

experiment: Terminal half life in human urine treated with monohydroxy derivative of OXC at 250 mg, iv administered as infusion over 30 mins by high-performance liquid chromatography; format: ADME, organism-based; conditions: read-out: beta t1/2 (converted)
quantity: half-life

{"structure": "NC(=O)N1c2ccccc2C[C@@H](O)c2ccccc21", "readout-value": "9 h"}
{"structure": "NC(=O)N1c2ccccc2C[C@H](O[C@@H]2O[C@H](C(=O)O)[C@@H](O)[C@H](O)[C@H]2O)c2ccccc21", "readout-value": "9.9 h"}
{"structure": "NC(=O)N1c2ccccc2C[C@@H](O[C@@H]2O[C@H](C(=O)O)[C@@H](O)[C@H](O)[C@H]2O)c2ccccc21", "readout-value": "14.2 h"}

###

assay: AUC (0 to 72 hrs) in human treated with monohydroxy derivative of OXC at 250 mg, iv administered as single dose by high-performance liquid chromatography; assay type: ADME, organism-based; parameters: dose 250 mg, time < 72 hr, route intravenous; conditions: plasma
Entries and their AUC(0-t) at 72 h
quantity: AUC(0-t) at 72 h

{"compound": "NC(=O)N1c2ccccc2C[C@H](O)c2ccccc21 [ESLICARBAZEPINE]", "quantity": "AUC(0-t) at 72 h", "readout-value": "192 µM·h"}
{"compound": "NC(=O)N1c2ccccc2C[C@@H](O)c2ccccc21", "quantity": "AUC(0-t) at 72 h", "readout-value": "132 µM·h"}
